- assay notes: Cmax in Sprague-Dawley rat at 5 mg/kg, po measured upto 24 hrs by LC-MS/MS analysis
- Type: ADME, organism-based
- Set-up: dose 5 mg/kg, route oral
- measurement conditions: in vivo

>  <smiles string>
C[C@@H](Nc1nc2c(cnn2C2CCCC2)c(=O)[nH]1)C(=O)N1CC[C@H](F)C1

>  <Cmax, ng/mL>
294

$$$$

====

- assay notes: Half life in Sprague-Dawley rat at 0.4 mg/kg, iv measured up to 24 hrs by LC-MS/MS analysis
- Format: ADME, organism-based
- measurement conditions: in vivo
measure: half-life (min)

>  <smiles string>
C[C@@H](Nc1nc2c(cnn2C2CCCC2)c(=O)[nH]1)C(=O)N1CC[C@H](F)C1

>  <measured value>
19.2

$$$$

====

Measured CLhep predicted at 1.5 µM accompanies every entry in the list below.
- assay notes: Hepatic clearance in rat liver microsomes at 1.5 uM
- Format: ADME, Microsome
measure: CLhep predicted at 1.5 µM

>  <smiles string>
C[C@@H](Nc1nc2c(cnn2C2CCCC2)c(=O)[nH]1)C(=O)N1CC[C@H](F)C1

>  <measured value>
36.8 mL/min/kg

$$$$
>  <smiles string>
C[C@@H](Nc1nc2c(cnn2C2CCCC2)c(=O)[nH]1)C(=O)N1CCSC1

>  <measured value>
45.9 mL/min/kg

$$$$
>  <smiles string>
CCCc1nn(C)c2c(=O)[nH]c(-c3cc(S(=O)(=O)N4CCN(C)CC4)ccc3OCC)nc12

>  <measured value>
49.3 mL/min/kg

$$$$

====

- assay notes: Tmax in Sprague-Dawley rat at 0.4 mg/kg, iv measured up to 24 hrs by LC-MS/MS analysis
- Type: ADME, organism-based
- measurement conditions: in vivo

>  <smiles string>
C[C@@H](Nc1nc2c(cnn2C2CCCC2)c(=O)[nH]1)C(=O)N1CC[C@H](F)C1

>  <unit string>
min

>  <Tmax>
4.98

$$$$

====

- assay notes: Apparent clearance in rat liver microsomes at 1.5 uM
- Assay type: ADME, Microsome
- measurement conditions: read-out: CLH(app)
Measured CLint scaled at 1.5 µM accompanies every entry in the list below.
measure: CLint scaled at 1.5 µM

>  <smiles string>
C[C@@H](Nc1nc2c(cnn2C2CCCC2)c(=O)[nH]1)C(=O)N1CC[C@H](F)C1

>  <measured value>
111 mL/min/kg

$$$$
>  <smiles string>
C[C@@H](Nc1nc2c(cnn2C2CCCC2)c(=O)[nH]1)C(=O)N1CCSC1

>  <measured value>
278 mL/min/kg

$$$$
>  <smiles string>
CCCc1nn(C)c2c(=O)[nH]c(-c3cc(S(=O)(=O)N4CCN(C)CC4)ccc3OCC)nc12

>  <measured value>
463 mL/min/kg

$$$$

====

- assay notes: AUC (0 to t) in Sprague-Dawley rat at 5 mg/kg, po measured upto 24 hrs by LC-MS/MS analysis
- Format: ADME, organism-based
- Set-up: time < 24 hr, dose 5 mg/kg, route oral
- measurement conditions: in vivo

>  <smiles string>
C[C@@H](Nc1nc2c(cnn2C2CCCC2)c(=O)[nH]1)C(=O)N1CC[C@H](F)C1

>  <AUC(0-t) at 24 h [ng·h/mL]>
486

$$$$

Data origin, for the record: ChEMBL document CHEMBL4385597
